# experimental system: Mitogen-activated protein kinase kinase kinase kinase 1 (Homo sapiens)
# Sequence (Q92918 whole entry): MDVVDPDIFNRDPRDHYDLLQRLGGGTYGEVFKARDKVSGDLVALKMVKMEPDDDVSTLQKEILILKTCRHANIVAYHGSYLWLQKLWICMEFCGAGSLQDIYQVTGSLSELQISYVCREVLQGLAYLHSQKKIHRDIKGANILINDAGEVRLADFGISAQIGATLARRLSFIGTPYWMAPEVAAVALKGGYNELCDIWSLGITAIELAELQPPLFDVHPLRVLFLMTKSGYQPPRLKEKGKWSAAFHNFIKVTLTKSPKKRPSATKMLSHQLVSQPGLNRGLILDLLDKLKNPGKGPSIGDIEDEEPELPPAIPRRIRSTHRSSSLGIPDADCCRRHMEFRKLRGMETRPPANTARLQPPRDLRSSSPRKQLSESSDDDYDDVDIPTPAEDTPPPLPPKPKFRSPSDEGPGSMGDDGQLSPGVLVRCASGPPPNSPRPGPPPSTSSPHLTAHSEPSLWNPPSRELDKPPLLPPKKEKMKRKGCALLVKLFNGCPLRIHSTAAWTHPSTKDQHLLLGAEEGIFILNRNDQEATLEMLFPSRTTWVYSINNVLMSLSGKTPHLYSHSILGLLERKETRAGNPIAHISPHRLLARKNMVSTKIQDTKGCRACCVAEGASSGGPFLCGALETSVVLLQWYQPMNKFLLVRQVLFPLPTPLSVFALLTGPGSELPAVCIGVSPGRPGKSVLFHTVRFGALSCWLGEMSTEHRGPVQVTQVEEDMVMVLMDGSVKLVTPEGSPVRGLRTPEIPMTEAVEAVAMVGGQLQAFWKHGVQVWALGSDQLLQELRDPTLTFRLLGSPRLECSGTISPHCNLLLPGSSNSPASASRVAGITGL
# method notes: HPK1 Kinase Activity Inhibition Assay
# From the text: 1. HPK1 Kinase Activity Inhibition Test. The kinase activity of HPK1 is manifested as activity of autophosphorylation and phosphorylation of downstream substrates. In the process of autophosphorylation, additional substrates are not required, and ATP is consumed to generate ADP. […] The fluorescence signal was read using a Biotek multi-function plate reader, and the […] (half inhibitory concentration) of the compound was obtained using a four-coefficient nonlinear fitting formula.
pIC50: −log10 of the molar value.
# pIC50 values compiled below

>  <compound>
CCc1cccc(F)c1-n1nc2c(-c3ccc(N4CCN(CC(C)(C)O)CC4)cc3)n[nH]c2cc1=O

>  <pIC50>
> 7.30

$$$$
>  <compound>
Cc1cccc(F)c1-n1nc2c(-c3ccc(N4CCN5C(=O)OCC5C4)nc3)n[nH]c2cc1=O (configuration not stated)

>  <pIC50>
> 7.30

$$$$
